# System: A375 (malignant melanoma) cell line
# protocol.notes: CellTiter-Glo luminescent cell viability assay, A375
# Type: cell-based, human
# condition.summary: Homo sapiens, A-375; A375 cell line; 72 h incubation; CellTiter-Glo; read-out: EC50, growth inhibition of A375
# Protocol: All cell lines were maintained in medium containing 1% penicillin-streptomycin (Dutscher, P06-07100) and 10% Fetal Bovine Serum (Hyclone Dutscher, RZK35922) cultured at 37° C. with 5% CO2. […] Cell viability was measured using the CellTiter-Glo® luminescent cell viability assay as described by the manufacturer (Promega, Ref G7571) using an Infinite F200Pro luminometer (Tecan). […]
pEC50: −log10 of the molar value. Counter-ions that a name gives are not always drawn.
attribute.measured: pEC50

Past entries and their recorded results:
compound="Clc1ccc(CNc2cc(N3CC(N4CCOCC4)C3)c3ccccc3n2)cc1 [Compound 118, hydrochloride]" attribute_measured=pEC50 result_value="5.00 to 5.30"
compound="Clc1ccc(CNc2cc(N3CCC(Oc4ccncc4)CC3)c3ccccc3n2)cc1 [Compound 2950, hydrochloride]" attribute_measured=pEC50 result_value="5.30 to 6.30"
compound="Cc1ccc2c(N3CCC(NC(C)(C)C)CC3)cc(NCc3ccc(Cl)cc3)nc2c1F [Compound 564]" attribute_measured=pEC50 result_value="5.30 to 6.30"

Consider now this further compound.
Answer with reported pEC50 of CNC1CCN(c2c(C#N)c(NCc3ccc(Cl)cc3)nc3ccccc23)C1 (stereo not shown) [Compound 3192CN]
5.30 to 6.30
